Target: HLA-A*11:01
Test: IEDB peptide-MHC binding, purified MHC/competitive/radioactivity; filed as Kd, often an IC50 or EC50 that approximates it; bounds were set here for any values at or beyond the usual limits of such assays
Details: source organism: Dengue virus 2 Jamaica/1409/1983

{"columns": ["SEQUENCE CODE", "Kd / nM"],
 "data": [
  ["MLINRFTMK", 116],
  ["AIFKLTYQNK", 57.5],
  ["GIFLFLMSGK", 549],
  ["VTRLENLMWK", 128],
  ["LTSRATWAK", 44.8]
]}

* * *

Biological target: HLA-A*69:01
Test: IEDB peptide-MHC binding, purified MHC/direct/fluorescence; filed as Kd, often an IC50 or EC50 that approximates it; bounds were set here for any values at or beyond the usual limits of such assays
Details: source organism: Burkholderia mallei
REPORTED ENDPOINT: Kd

{"columns": ["SEQUENCE CODE", "REPORTED ENDPOINT", "RESULT VALUE"],
 "data": [
  ["IYDFYNAEY", "Kd", "≥ 20 µM"]
]}
